Procedure details: inhibitors of hepatocyte lipid droplet formation, primary screen, imaging, high-throughput imaging, BODIPY stain (AID 1656)
Run conditions: AML12 mouse hepatocytes, oleate lipid droplets, at 6.5 µM
Out of some 240,000 compounds screened, about 950 (0.4%) were called active.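 The calls were made as follows: active = lipid droplet intensity inhibited by at least 50%, with more than 500 cells counted; inconclusive = wells with under 300 cells, treated as cytotoxic; inactive = the rest.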 The sample as a whole holds a higher share of actives than the screen did.
Answer with one of the outcomes active, inactive

Past entries and their recorded results:
CC(=O)c1ccc(N2CCN(C(=O)C3CCN(S(=O)(=O)c4ccc5c(c4)CC(C)N5C(=O)C4CC4)CC3)CC2)cc1 (stereo not given) | inactive
CC(Cc1cccs1)N(Cc1ccc(Cl)cc1)C(=O)c1ccncc1 (stereo not given) | inactive
CCC(C(=O)NCc1ccc(OC)cc1)n1nc(C)n2c(cc3occc32)c1=O (stereo not given) | inactive
CCOc1ccc(CCNC(=O)C(CC)n2nc(C)n3c(cc4sccc43)c2=O)cc1OCC (stereo not given) | active

Prompt: Record request — test call for "CCOC(=O)[C@H]1[C@H]2COc3cc(OC)ccc3[C@@H]2N2C(=O)N(c3ccc(Br)cc3)C(=O)[C@@]12C"
Completion: inactive
